FYI, the data here is from patent US9938301B2.

# Tested on: HBV DNA in HepG2.2.15 cells
# ASSAY_TEXT: HBV in vitro dot-blot hybridization test
# Assay type: cell-based, Hepatitis B virus
# SETUP_CONDITIONS: Hepatitis B virus, HepG2.2.15, dot-blot hybridization assay, read-out: Concentration for 50% inhibition of HBV (EC50)value
READOUT_LABEL: EC50

[
  {
    "COMPOUND": "CCOC(=O)C1=C2COC(=O)N2C(c2nccs2)=NC1c1ccc(F)cc1Br (racemic)",
    "RECORDED_VALUE": "100 to 500 nM"
  },
  {
    "COMPOUND": "COC(=O)N[C@H]1CC2=C(C(=O)OC)[C@H](c3ccc(F)cc3Cl)N=C(c3nccs3)N2C1",
    "RECORDED_VALUE": "< 100 nM"
  },
  {
    "COMPOUND": "CCOC(=O)C1=C2CCCN2C(c2nccs2)=N[C@H]1c1ccc(F)cc1Br",
    "RECORDED_VALUE": "100 to 500 nM"
  }
]

* * *

Known pEC50 of a selection of compounds
# Tested on: HBV DNA in HepG2.2.15 cells
# ASSAY_TEXT: HBV in vitro dot-blot hybridization test
# Type: cell-based, Hepatitis B virus
# SETUP_CONDITIONS: Hepatitis B virus, HepG2.2.15, dot-blot hybridization assay, read-out: Concentration for 50% inhibition of HBV (EC50)value
pEC50: −log10 of the molar value.

[
  {
    "SMILES_RECORD": "COC(=O)C1=C2C[C@H](NS(N)(=O)=O)CN2C(c2nccs2)=N[C@H]1c1ccc(F)cc1Cl",
    "EXPERIMENTAL_SYSTEM": "HBV DNA in HepG2.2.15 cells",
    "pEC50": "> 7.00"
  },
  {
    "SMILES_RECORD": "CCOC(=O)C1=C2CN(C(=O)C(C)C)CCN2C(c2nccs2)=N[C@H]1c1ccc(F)cc1Br",
    "EXPERIMENTAL_SYSTEM": "HBV DNA in HepG2.2.15 cells",
    "pEC50": "> 7.00"
  },
  {
    "SMILES_RECORD": "CCOC(=O)C1=C2C[C@@H](CN3CCOCC3)CN2C(c2nccs2)=N[C@H]1c1ccc(F)cc1Br",
    "EXPERIMENTAL_SYSTEM": "HBV DNA in HepG2.2.15 cells",
    "pEC50": "5.30 to 6.00"
  },
  {
    "SMILES_RECORD": "CCOC(=O)C1=C2CN(C3COC3)CCN2C(c2nccs2)=N[C@H]1c1ccc(F)cc1Br",
    "EXPERIMENTAL_SYSTEM": "HBV DNA in HepG2.2.15 cells",
    "pEC50": "6.00 to 6.30"
  },
  {
    "SMILES_RECORD": "CCOC(=O)C1=C2C[C@@H](NS(=O)(=O)NC)CN2C(c2nccs2)=N[C@H]1c1ccc(F)cc1Br",
    "EXPERIMENTAL_SYSTEM": "HBV DNA in HepG2.2.15 cells",
    "pEC50": "> 7.00"
  },
  {
    "SMILES_RECORD": "CCOC(=O)C1=C2CN(S(=O)(=O)NC)CCN2C(c2nccs2)=N[C@H]1c1ccc(F)cc1Br",
    "EXPERIMENTAL_SYSTEM": "HBV DNA in HepG2.2.15 cells",
    "pEC50": "6.30 to 7.00"
  },
  {
    "SMILES_RECORD": "CCOC(=O)C1=C2C[C@H](C(=O)NS(=O)(=O)C(F)(F)F)CN2C(c2nccs2)=N[C@H]1c1ccc(F)cc1F",
    "EXPERIMENTAL_SYSTEM": "HBV DNA in HepG2.2.15 cells",
    "pEC50": "5.30 to 6.00"
  }
]

* * *

Known EC50 of a selection of compounds
# Test system: HBV DNA in HepG2.2.15 cells
# ASSAY_TEXT: HBV in vitro dot-blot hybridization test
# Assay type: cell-based, Hepatitis B virus
# SETUP_CONDITIONS: Hepatitis B virus, HepG2.2.15, dot-blot hybridization assay, read-out: Concentration for 50% inhibition of HBV (EC50)value

[
  {
    "COMPOUND": "CCS(=O)(=O)N[C@H]1CC2=C(C(=O)OC)[C@H](c3ccc(F)cc3Cl)N=C(c3nccs3)N2C1",
    "EC50": "< 100 nM"
  },
  {
    "COMPOUND": "CCOC(=O)C1=C2C[C@H](N3CCOCC3)CN2C(c2nccs2)=N[C@H]1c1ccc(F)cc1Cl",
    "EC50": "< 100 nM"
  },
  {
    "COMPOUND": "CCOC(=O)C1=C2C[C@H](CNS(=O)(=O)C3CC3)CN2C(c2nccs2)=N[C@H]1c1ccc(F)cc1Br",
    "EC50": "< 100 nM"
  },
  {
    "COMPOUND": "CCOC(=O)C1=C2C[C@H](NS(=O)(=O)C(F)(F)F)CN2C(c2nccs2)=N[C@H]1c1ccc(F)cc1Br",
    "EC50": "100 to 500 nM"
  },
  {
    "COMPOUND": "CCOC(=O)C1=C2C[C@H](NC(=O)NC)CN2C(c2nccs2)=N[C@H]1c1ccc(F)cc1Br",
    "EC50": "< 100 nM"
  },
  {
    "COMPOUND": "CCOC(=O)C1=C2CN(C)C(=O)CN2C(c2nccs2)=NC1c1ccc(F)cc1Br (racemic)",
    "EC50": "500 to 1000 nM"
  },
  {
    "COMPOUND": "CCOC(=O)C1=C2[C@@H](NS(C)(=O)=O)CCN2C(c2nccs2)=N[C@H]1c1ccc(F)cc1Br",
    "EC50": "1000 to 5000 nM"
  },
  {
    "COMPOUND": "CCOC(=O)C1=C2C[C@H](NS(C)(=O)=O)CN2C(c2nccs2)=N[C@H]1c1ccc(F)c(F)c1",
    "EC50": "100 to 500 nM"
  },
  {
    "COMPOUND": "CCOC(=O)C1=C2CNC(=O)CN2C(c2nccs2)=NC1c1ccc(F)cc1Br (racemic)",
    "EC50": "1000 to 5000 nM"
  },
  {
    "COMPOUND": "CCOC(=O)C1=C2C[C@@H](N)CN2C(c2nccs2)=N[C@H]1c1ccc(F)cc1Br",
    "EC50": "1000 to 5000 nM"
  },
  {
    "COMPOUND": "CCOC(=O)C1=C2CN(Cc3cc(C)on3)CCN2C(c2nccs2)=N[C@H]1c1ccc(F)cc1Br",
    "EC50": "1000 to 5000 nM"
  },
  {
    "COMPOUND": "COC(=O)C1=C2C[C@H](NS(=O)(=O)C(F)(F)F)CN2C(c2nccs2)=N[C@H]1c1ccc(F)cc1Cl",
    "EC50": "< 100 nM"
  },
  {
    "COMPOUND": "CCOC(=O)C1=C2C[C@H](NS(C)(=O)=O)CN2C(c2nccs2)=N[C@H]1c1ccc(F)cc1F",
    "EC50": "< 100 nM"
  },
  {
    "COMPOUND": "CCOC(=O)C1=C2C[C@@H](CNS(=O)(=O)C3CC3)CN2C(c2nccs2)=N[C@H]1c1ccc(F)cc1Br",
    "EC50": "1000 to 5000 nM"
  },
  {
    "COMPOUND": "CCOC(=O)C1=C2C[C@H](N)CN2C(c2nccs2)=N[C@H]1c1ccc(F)cc1Br",
    "EC50": "1000 to 5000 nM"
  }
]

* * *

# Tested on: HBV DNA in HepG2.2.15 cells
# ASSAY_TEXT: HBV in vitro dot-blot hybridization test
# Type: cell-based, Hepatitis B virus
# SETUP_CONDITIONS: Hepatitis B virus, HepG2.2.15, dot-blot hybridization assay, read-out: Concentration for 50% inhibition of HBV (EC50)value
pEC50: −log10 of the molar value.
READOUT_LABEL: pEC50

[
  {
    "MOLECULE": "CCOC(=O)C1=C2C[C@H](CO)CN2C(c2nccs2)=N[C@H]1c1ccc(F)cc1Br",
    "READOUT_LABEL": "pEC50",
    "RECORDED_VALUE": "6.30 to 7.00"
  },
  {
    "MOLECULE": "CCOC(=O)C1=C2CCOC(=O)N2C(c2nccs2)=NC1c1ccc(F)cc1Cl (racemic)",
    "READOUT_LABEL": "pEC50",
    "RECORDED_VALUE": "5.30 to 6.00"
  },
  {
    "MOLECULE": "O=C(OCC(F)F)C1=C2CCCN2C(c2nccs2)=NC1c1ccc(F)cc1Br (racemic)",
    "READOUT_LABEL": "pEC50",
    "RECORDED_VALUE": "5.30 to 6.00"
  },
  {
    "MOLECULE": "CCOC(=O)C1=C2C[C@H](N(C)S(=O)(=O)NC)CN2C(c2nccs2)=N[C@H]1c1ccc(F)cc1Br",
    "READOUT_LABEL": "pEC50",
    "RECORDED_VALUE": "> 7.00"
  },
  {
    "MOLECULE": "CCOC(=O)C1=C2C[C@@H](C(N)=O)CN2C(c2nccs2)=N[C@H]1c1ccc(F)cc1Cl",
    "READOUT_LABEL": "pEC50",
    "RECORDED_VALUE": "6.30 to 7.00"
  },
  {
    "MOLECULE": "CCOC(=O)C1=C2CC(NS(C)(=O)=O)CN2C(c2nccs2)=N[C@H]1c1ccc(F)cc1Br (mixture of isomers) [Example 57]",
    "READOUT_LABEL": "pEC50",
    "RECORDED_VALUE": "> 7.00"
  },
  {
    "MOLECULE": "COC(=O)C1=C2C[C@H](NC(C)=O)CN2C(c2nccs2)=N[C@H]1c1ccc(F)cc1Cl",
    "READOUT_LABEL": "pEC50",
    "RECORDED_VALUE": "6.30 to 7.00"
  }
]
